# assay-info: IUF_NPC2b_neuronal_migration_120hr: Leibniz Research Institute for Environmental Medicine (IUF) 120-hour Neural Progenitor Cell Migration Assay for Neuron Migration (NPC2b) (AID 2284300)
Active and inactive are the calls of the source. Rule for the calls: active = hit-call score of the fitted dose curve at least 0.9, where 1 is the maximum; inactive = score below 0.9.
Labels: active, inactive

- O=P(OCCCl)(OCCCl)OCCCl: inactive
- CC(C)COC(=O)c1ccccc1C(=O)OCC(C)C: inactive
- COP(=S)(OC)SCN1C(=O)c2ccccc2C1=O: inactive
- CCCCOC(=O)c1ccccc1C(=O)OCc1ccccc1: inactive
- CC(C)(C)C(O)(CCc1ccc(Cl)cc1)Cn1cncn1 (configuration not stated): inactive
- CCC[CH2][Sn]([Cl])([CH2]CCC)[CH2]CCC: active
- CNC(=O)Oc1cccc2c1OC(C)(C)C2: inactive
